FYI, the data here is from patent US12692253B2.

# Test system: E. coli (Ec)
# assay details: Broth microdilution minimum inhibitory concentration (MIC), CLSI
# Assay type: cell-based
# condition: Escherichia coli, growth medium supplemented with sodium bicarbonate, read-out: E. coli + bicarb MIC
Exercise: for every item that follows, state its recorded MIC.

Task: Record request: MIC value, item CC(C)(N)C(=O)N1CCN(C(=O)Nc2ccn(-c3ccc(CN4C5CCC4CC(N)C5)cc3)c(=O)n2)CC1 (centres unmarked) [Compound 58]
Result: < 8 µg/mL

Task: Endpoint output: MIC of CC(C)(N)C(=O)N1CCN(C(=O)Nc2ccn(-c3ccc(CN4CCC5(CCNC5)C4)cc3)c(=O)n2)CC1 (centres unmarked) [Compound 80] . Value?
Result: < 8 µg/mL

Task: Given the entry CC(C)(N)C(=O)N1CCN(C(=O)Nc2ccn(-c3ccc(CN4C[C@@H]5[C@@H](CN)[C@@H]5C4)cc3)c(=O)n2)CC1 [Compound 68] , report its measured MIC.
Result: < 8 µg/mL

Task: Given the entry CC(Cc1ccc(-n2ccc(NC(=O)N3CCN(C(=O)C(C)(C)N)CC3)nc2=O)cc1)N1CC2(CNC2)C1 (centres unmarked) [Compound 162] , report its measured MIC.
Result: 8 to 32 µg/mL

Task: Data request, read-out MIC, for Cc1cc(-n2ccc(NC(=O)N3CCN(C(=O)[C@@](C)(N)CO)CC3)nc2=O)ccc1CCN1C[C@@H]2[C@@H](CN)[C@@H]2C1 [Compound 129]
Result: < 8 µg/mL

Task: For NC1CCC12CCN(C(=O)Nc1ccn(-c3ccc(CN4C[C@@H]5[C@@H](N)[C@@H]5C4)cc3)c(=O)n1)CC2 (some centres unmarked) [Compound 64] , what is its reported MIC?
Result: 8 to 32 µg/mL

Task: Given the entry CC(C)(N)C(=O)N1CCN(C(=O)Nc2ccn(-c3ccc(CN4CC5CCC(C4)C5N)cc3)c(=O)n2)CC1 (centres unmarked) [Compound 29] , report its measured MIC.
Result: < 8 µg/mL

Task: # query: MIC of entry CC(C)(N)CN1CCN(C(=O)Nc2ccn(-c3ccc(CN4C[C@@H]5[C@@H](N)[C@@H]5C4)cc3)c(=O)n2)CC1=O [Compound 47]
Result: 8 to 32 µg/mL

Task: So what's the measured MIC for this one? CC(C)(N)C(=O)N1CCN(C(=O)Nc2ccn(-c3ccc(CN4CCC5(CC5N)C4)cc3)c(=O)n2)CC1 (centres unmarked) [Compound 21]
Result: < 8 µg/mL

Task: Which value of MIC has been reported for CC(C)(N)C(=O)N1CCN(C(=O)Nc2ccn(-c3cccc(CCN4C[C@@H]5[C@@H](CN)[C@@H]5C4)c3)c(=O)n2)CC1 [Compound 143] in the records?
Result: < 8 µg/mL

Task: Which value of MIC has been reported for C[C@@H]1CN(C(=O)Nc2ccn(-c3ccc(CN4C[C@@H]5[C@@H](N)[C@@H]5C4)cc3)c(=O)n2)CCN1C(=O)C(C)(C)N [Compound 31] in the records?
Result: < 8 µg/mL

Task: Name the recorded MIC for CC(C)C(Cc1ccc(-n2ccc(NC(=O)N3CCN(C(=O)C(C)(C)N)CC3)nc2=O)cc1)N1C[C@@H]2[C@@H](CN)[C@@H]2C1 (some centres unmarked) [Compound 155] .
Result: < 8 µg/mL

Task: What value of MIC has been recorded for this entry: CC(C)(N)C(=O)N1CCN(C(=O)Nc2ccn(-c3ccc(CCN4CCC5CC5(N)C4)c(C(F)(F)F)c3)c(=O)n2)CC1 (centres unmarked) [Compound 103]
Result: 8 to 32 µg/mL

Task: Dear colleague, I am looking for the recorded MIC of the following molecule: CC(CN1C[C@@H]2[C@@H](CN)[C@@H]2C1)c1ccc(-n2ccc(NC(=O)N3CCN(C(=O)C(C)(C)N)CC3)nc2=O)cc1 (some centres unmarked) [Compound 121]
Result: < 8 µg/mL

Task: Data request, read-out MIC, for CC(Cc1ccc(-n2ccc(NC(=O)N3CCN(C(=O)C(C)(C)N)CC3)nc2=O)cc1)N1CC2(CCC2N)C1 (centres unmarked) [Compound 111]
Result: < 8 µg/mL

Task: GET /values?readout=MIC&item= NC1CC2(CCN(C(=O)Nc3ccn(-c4ccc(CN5C[C@@H]6[C@@H](N)[C@@H]6C5)cc4)c(=O)n3)CC2)C1 [Compound 49]
Result: < 8 µg/mL

Task: Would you mind telling me what MIC value was observed for CC(C)(N)C(=O)N1CCN(C(=O)Nc2ccn(-c3ccc(CCN4CC5CC5(CN)C4)cc3)c(=O)n2)CC1 (centres unmarked) [Compound 117] ?
Result: < 8 µg/mL

Task: Look up MIC for this molecule: NC[C@@H]1[C@H]2CN(CCc3ccc(-n4ccc(NC(=O)N5CCC6(CC5)CC(N)C6)nc4=O)cc3)C[C@@H]12 [Compound 146]
Result: < 8 µg/mL

Task: What does the record list as MIC for Cc1cc(-n2ccc(NC(=O)N3CCN(C(=O)C(C)(C)N)CC3)nc2=O)ccc1CCN1CCC2CC2(N)C1 (centres unmarked) [Compound 101] ?
Result: < 8 µg/mL

Task: Please report the recorded MIC for CCC(Cc1ccc(-n2ccc(NC(=O)N3CCN(C(=O)C(C)(C)N)CC3)nc2=O)cc1)N1C[C@@H]2[C@@H](CN)[C@@H]2C1 (some centres unmarked) [Compound 135] .
Result: < 8 µg/mL

Task: Which MIC reading was recorded for the molecule CC(C)(N)C(=O)N1CCN(C(=O)Nc2ccn(-c3ccc(CCN4C[C@@H]5[C@@H](N)[C@@H]5C4)cc3)c(=O)n2)CC1 [Compound 84] ?
Result: > 32 µg/mL

Task: Query: MIC; subject: CC(c1ccc(-n2ccc(NC(=O)N3CCN(C(=O)C(C)(C)N)CC3)nc2=O)cc1)N1C[C@@H]2[C@@H](N)[C@@H]2C1 (some centres unmarked) [Compound 67]
Result: < 8 µg/mL

Task: Suppose we examine the molecule CC(C)(N)C(=O)N1CCN(C(=O)Nc2ccn(-c3ccc(CCN4CCC5(CCC5N)CC4)cc3)c(=O)n2)CC1 (centres unmarked) [Compound 95] ; what MIC value has been reported?
Result: < 8 µg/mL

Task: Query: MIC; subject: Cc1cc(-n2ccc(NC(=O)N3CCN(C(=O)[C@@](C)(N)CO)CC3)nc2=O)ccc1CCN1CC2CC2(CN)C1 (some centres unmarked) [Compound 128]
Result: < 8 µg/mL

Task: What does the record list as MIC for CC(Cc1ccc(-n2ccc(NC(=O)N3CCN(C(=O)[C@@](C)(N)CO)CC3)nc2=O)cc1)N1C[C@@H]2[C@@H](CN)[C@@H]2C1 (some centres unmarked) [Compound 125] ?
Result: < 8 µg/mL

Task: Which MIC value belongs to C[C@@](N)(CO)C(=O)N1CCN(C(=O)Nc2ccn(-c3ccc(CCN4CC5CC5(CN)C4)cc3)c(=O)n2)CC1 (some centres unmarked) [Compound 120] ?
Result: < 8 µg/mL
